system: Erysiphe graminis f. sp. tritici; test: Test A: wheat powdery mildew, preventive spray on wheat seedlings, visual disease rating; settings: 200 ppm; 100 = 100 % disease control, 0 = no disease control relative to controls
Label scheme for Test A disease control rating: lower than 80% is no (0), 80% and above is yes (1).

Query string: Test whether the molecule CN1OC(C)(c2cccnc2)CC1c1ccc(Br)c(F)c1 (stereo not drawn) [Compound 101] records Test A disease control rating of 80% or higher.
Result string: yes (1)

Query string: # check: Test A disease control rating of CN1OC(c2cccnc2)(C(F)(F)F)CC1c1ccc(-c2ccccc2)cc1 (racemic) [Compound 24] is greater than or equal to 80%
Result string: yes (1)

Query string: Could you tell me if the measured Test A disease control rating of CN1OC(C)(c2cccnc2)CC1c1ccc(-c2ccccc2)cc1 (racemic) [Compound 11] reaches 80% or more?
Result string: yes (1)

Query string: Has CN1OC(C)(c2cccnc2)CC1c1ccccc1Br (stereo not drawn) [Compound 65] a recorded Test A disease control rating greater than or equal to 80%?
Result string: no (0)

Query string: Test whether the molecule CN1OC(c2cccnc2)(C(F)(F)F)CC1c1ccc(Br)cc1 (racemic) [Compound 30] records Test A disease control rating of 80% or higher.
Result string: yes (1)

Query string: Hello, I need to know if CN1OC(C)(c2cccnc2)CC1c1ccc(I)cc1 (racemic) [Compound 15] has measured Test A disease control rating not below 80%. Thanks!
Result string: yes (1)

Query string: Threshold query (Test A disease control rating >= 80%) on CN1OC(C)(c2cccnc2)CC1c1ccc(Br)cc1Br (stereo not drawn) [Compound 83]
Result string: yes (1)

Query string: Quick check: does CN1OC(C)(c2cccnc2)CC1c1cccc2c1OC(F)(F)O2 (stereo not drawn) [Compound 91] have Test A disease control rating greater than or equal to 80%?
Result string: no (0)

Query string: Could you please find out whether CN1OC(C)(c2cccnc2)CC1c1ccc(F)c(F)c1 (stereo not drawn) [Compound 82] has Test A disease control rating that meets 80% or exceeds it?
Result string: no (0)

Query string: Is Test A disease control rating at least 80%? Consider CN1OC(C)(c2cccnc2)CC1c1ccc(Oc2ccccc2)cc1 (racemic) [Compound 10]
Result string: yes (1)

Query string: Exam item: decide whether the reported Test A disease control rating for COc1ccc(C2CC(C)(c3cccnc3)ON2C)c2ccccc12 (mixture of isomers) [Compound 68] is at least 80%.
Result string: no (0)

Query string: I'd appreciate it if you could say whether CN1OC(C)(c2cccnc2)CC1c1cccc(Cl)c1 (stereo not drawn) [Compound 77] has Test A disease control rating at least equal to 80%.
Result string: no (0)

Query string: Is reported Test A disease control rating greater than or equal to 80% here: CN1OC(C)(c2cccnc2)CC1c1ccccc1Cl (stereo not drawn) [Compound 93]
Result string: no (0)

Query string: API: above_or_equal(metric=Test A disease control rating, cutoff=80%) for item CN1OC(C)(c2cccnc2)CC1c1ccc(-c2ccnn2CC(F)(F)F)cc1 (mixture of isomers) [Compound 63]
Result string: no (0)

Query string: Given the entry COc1ccccc1C1CC(C)(c2cccnc2)ON1C (mixture of isomers) [Compound 100] , answer whether its Test A disease control rating meets or surpasses 80%.
Result string: no (0)

Query string: Given the entry CN1O[C@@](C)(c2cccnc2)C[C@@H]1c1ccc(Cl)cc1 (relative stereo) [Compound 2] , answer whether its Test A disease control rating meets or surpasses 80%.
Result string: no (0)

Query string: hey, is Test A disease control rating for this one >= 80%? Cc1ccccc1C1CC(C)(c2cccnc2)ON1C (mixture of isomers) [Compound 99]
Result string: no (0)

Source: patent US20090270407A1
